Numbers sourced from patent US20040142972A1.

# Tested on: cloned muscarinic - M1 binding site (Homo sapiens, UniProt P11229)
# Sequence (P11229 1-460): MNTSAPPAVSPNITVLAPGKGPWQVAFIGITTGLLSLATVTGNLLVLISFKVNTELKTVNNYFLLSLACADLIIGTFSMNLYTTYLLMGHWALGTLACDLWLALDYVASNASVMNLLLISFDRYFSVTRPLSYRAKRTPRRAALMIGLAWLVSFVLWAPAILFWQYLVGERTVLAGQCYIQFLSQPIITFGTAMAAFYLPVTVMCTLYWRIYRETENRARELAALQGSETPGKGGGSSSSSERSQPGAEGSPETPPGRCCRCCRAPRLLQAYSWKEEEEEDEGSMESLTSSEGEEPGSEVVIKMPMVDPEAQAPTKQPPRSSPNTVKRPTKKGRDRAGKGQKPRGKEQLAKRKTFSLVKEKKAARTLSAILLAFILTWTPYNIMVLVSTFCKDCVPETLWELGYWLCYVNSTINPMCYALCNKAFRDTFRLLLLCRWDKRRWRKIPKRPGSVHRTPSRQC
# Protocol details: Muscarinic M1 binding assay, [3H]-Scopolamine N-Methyl Chloride, human recombinant expressed in CHO cells
# Cond: Series 11 compounds, Table 5; unit inferred; receptor source not given
Reported IC50 values follow for various compounds
Write the answer as a number in nM, unit excluded.

Before answering, review these 3 worked examples.
O=C(CCN1CCC(=C(c2ccccc2)c2ccccc2)CC1)OC1CCOCC1 [Compound 11i] = 221
O=C(CCN1CCC(=C(c2ccccc2)c2ccccc2)CC1)OC1CCCC1.O=C(O)C(=O)O [Compound 11f] = 2210
O=C(CCN1CCC(=C(c2ccccc2)c2ccccc2)CC1)OC1CCOC1 (stereo not drawn) [Compound 11h] = 2240

Request: Give the measured IC50 for CC(C)COC(=O)CCN1CCC(=C(c2ccccc2)c2ccccc2)CC1 [Compound 11e]
Response: 3760

Request: Give the measured IC50 for CC(C)OC(=O)CCN1CCC(=C(c2ccccc2)c2ccccc2)CC1 [Compound 11d]
Response: 8000
